tested on: Escherichia coli; test: Antibacterial activity against Escherichia coli by agar well diffusion method; format: functional
Result Type: MIC (µM)

1. COc1cc(Cc2cnc(N)nc2N)cc(OC)c1OCC(=O)c1ccc([N+](=O)[O-])cc1: 72.9
2. COc1cc(Cc2cnc(N)nc2N)cc(OC)c1OC: 55.1
3. COc1ccc(COc2c(OC)cc(Cc3cnc(N)nc3N)cc2OC)cc1: 4
4. COc1cc(Cc2cnc(N)nc2N)cc(OC)c1OCC(=O)c1ccccc1: 81.2
5. COc1cc(Cc2cnc(N)nc2N)cc(OC)c1OCC(=O)c1ccc(Cl)cc1: 78.4
6. COc1cc(Cc2cnc(N)nc2/N=C/c2ccc(Cl)cc2)cc(OC)c1O: 535
7. COc1cc(Cc2cnc(N)nc2N)cc(OC)c1OCc1ccccc1: 18.2
8. COc1ccc(C(=O)COc2c(OC)cc(Cc3cnc(N)nc3N)cc2OC)cc1: 18.7
9. COc1cc(Cc2cnc(N)nc2N)cc(OC)c1OCc1ccc(Cl)cc1: 8.3
10. COc1cc(Cc2cnc(N)nc2/N=C/c2cccc(O)c2)cc(OC)c1O: 336

---

Each entry below carries its recorded MIC.
test system: Staphylococcus aureus; assay: Antibacterial activity against Staphylococcus aureus by agar well diffusion method; assay type: functional
Result Type: MIC (µM)

1. COc1cc(Cc2cnc(N)nc2N)cc(OC)c1OCC(=O)c1ccccc1: 81.2
2. COc1cc(Cc2cnc(N)nc2/N=C/c2ccc(Cl)cc2)cc(OC)c1O: 535
3. COc1cc(Cc2cnc(N)nc2N)cc(OC)c1OCC(=O)c1ccc(C)cc1: 37.7
4. COc1cc(Cc2cnc(N)nc2N)cc(OC)c1OCC(=O)c1ccc(Cl)cc1: 78.4
5. COc1cc(Cc2cnc(N)nc2N)cc(OC)c1O [4-HYDROXYTRIMETHOPRIM]: 24.1
6. COc1ccc(COc2c(OC)cc(Cc3cnc(N)nc3N)cc2OC)cc1: 5
7. COc1cc(Cc2cnc(N)nc2/N=C/c2cccc(O)c2)cc(OC)c1O: 672
8. COc1ccc(C(=O)COc2c(OC)cc(Cc3cnc(N)nc3N)cc2OC)cc1: 18.7
9. COc1cc(Cc2cnc(N)nc2/N=C/c2ccc(O)cc2)cc(OC)c1O: 672
10. COc1cc(Cc2cnc(N)nc2N)cc(OC)c1OCC(=O)c1ccc([N+](=O)[O-])cc1: 72.9
11. COc1cc(Cc2cnc(N)nc2N)cc(OC)c1OC: 22.7
12. COc1cc(Cc2cnc(N)nc2N)cc(OC)c1OCc1ccc(Cl)cc1: 20
13. COc1cc(Cc2cnc(N)nc2N)cc(OC)c1OCc1ccccc1: 18.2
14. COc1cc(Cc2cnc(N)nc2N)cc(OC)c1OCc1ccc([N+](=O)[O-])cc1: 32.3
15. COc1cc(Cc2cnc(N)nc2N)cc(OC)c1OCc1ccc(C)cc1: 10

---

test system: Escherichia coli; experiment: Antibacterial activity against Escherichia coli by agar well diffusion method; type: functional
Threshold check on MIC: strictly below 40 µM is T; on or above 40 µM is F.

1. COc1cc(Cc2cnc(N)nc2N)cc(OC)c1OCC(=O)c1ccc(C)cc1: T
2. COc1cc(Cc2cnc(N)nc2N)cc(OC)c1O [4-HYDROXYTRIMETHOPRIM]: F
3. COc1cc(Cc2cnc(N)nc2/N=C/c2ccc(O)cc2)cc(OC)c1O: F
4. COc1cc(Cc2cnc(N)nc2N)cc(OC)c1OCc1ccc(C)cc1: T
